B1: Rho-related GTP-binding protein RhoE (Homo sapiens), P61587 (parent)
chain: MKERRASQKLSSKSIMDPNQNVKCKIVVVGDSQCGKTALLHVFAKDCFPENYVPTVFENYTASFEIDTQRIELSLWDTSGSPYYDNVRPLSYPDSDAVLICFDISRPETLDSVLKKWKGEIQEFCPNTKMLLVGCKSDLRTDVSTLVELSNHRQTPVSYDQGANMAKQIGAATYIECSALQSENSVRDIFHVATLACVNKTNKNVKRNKSQRATKRISHMPSRPELSAVATDLRKDKAKSCTVM

# Variants of: B1
# RUN_PARAMETERS: with plxb2_human PLXNB2, O15031
# Sequence (O15031 whole entry): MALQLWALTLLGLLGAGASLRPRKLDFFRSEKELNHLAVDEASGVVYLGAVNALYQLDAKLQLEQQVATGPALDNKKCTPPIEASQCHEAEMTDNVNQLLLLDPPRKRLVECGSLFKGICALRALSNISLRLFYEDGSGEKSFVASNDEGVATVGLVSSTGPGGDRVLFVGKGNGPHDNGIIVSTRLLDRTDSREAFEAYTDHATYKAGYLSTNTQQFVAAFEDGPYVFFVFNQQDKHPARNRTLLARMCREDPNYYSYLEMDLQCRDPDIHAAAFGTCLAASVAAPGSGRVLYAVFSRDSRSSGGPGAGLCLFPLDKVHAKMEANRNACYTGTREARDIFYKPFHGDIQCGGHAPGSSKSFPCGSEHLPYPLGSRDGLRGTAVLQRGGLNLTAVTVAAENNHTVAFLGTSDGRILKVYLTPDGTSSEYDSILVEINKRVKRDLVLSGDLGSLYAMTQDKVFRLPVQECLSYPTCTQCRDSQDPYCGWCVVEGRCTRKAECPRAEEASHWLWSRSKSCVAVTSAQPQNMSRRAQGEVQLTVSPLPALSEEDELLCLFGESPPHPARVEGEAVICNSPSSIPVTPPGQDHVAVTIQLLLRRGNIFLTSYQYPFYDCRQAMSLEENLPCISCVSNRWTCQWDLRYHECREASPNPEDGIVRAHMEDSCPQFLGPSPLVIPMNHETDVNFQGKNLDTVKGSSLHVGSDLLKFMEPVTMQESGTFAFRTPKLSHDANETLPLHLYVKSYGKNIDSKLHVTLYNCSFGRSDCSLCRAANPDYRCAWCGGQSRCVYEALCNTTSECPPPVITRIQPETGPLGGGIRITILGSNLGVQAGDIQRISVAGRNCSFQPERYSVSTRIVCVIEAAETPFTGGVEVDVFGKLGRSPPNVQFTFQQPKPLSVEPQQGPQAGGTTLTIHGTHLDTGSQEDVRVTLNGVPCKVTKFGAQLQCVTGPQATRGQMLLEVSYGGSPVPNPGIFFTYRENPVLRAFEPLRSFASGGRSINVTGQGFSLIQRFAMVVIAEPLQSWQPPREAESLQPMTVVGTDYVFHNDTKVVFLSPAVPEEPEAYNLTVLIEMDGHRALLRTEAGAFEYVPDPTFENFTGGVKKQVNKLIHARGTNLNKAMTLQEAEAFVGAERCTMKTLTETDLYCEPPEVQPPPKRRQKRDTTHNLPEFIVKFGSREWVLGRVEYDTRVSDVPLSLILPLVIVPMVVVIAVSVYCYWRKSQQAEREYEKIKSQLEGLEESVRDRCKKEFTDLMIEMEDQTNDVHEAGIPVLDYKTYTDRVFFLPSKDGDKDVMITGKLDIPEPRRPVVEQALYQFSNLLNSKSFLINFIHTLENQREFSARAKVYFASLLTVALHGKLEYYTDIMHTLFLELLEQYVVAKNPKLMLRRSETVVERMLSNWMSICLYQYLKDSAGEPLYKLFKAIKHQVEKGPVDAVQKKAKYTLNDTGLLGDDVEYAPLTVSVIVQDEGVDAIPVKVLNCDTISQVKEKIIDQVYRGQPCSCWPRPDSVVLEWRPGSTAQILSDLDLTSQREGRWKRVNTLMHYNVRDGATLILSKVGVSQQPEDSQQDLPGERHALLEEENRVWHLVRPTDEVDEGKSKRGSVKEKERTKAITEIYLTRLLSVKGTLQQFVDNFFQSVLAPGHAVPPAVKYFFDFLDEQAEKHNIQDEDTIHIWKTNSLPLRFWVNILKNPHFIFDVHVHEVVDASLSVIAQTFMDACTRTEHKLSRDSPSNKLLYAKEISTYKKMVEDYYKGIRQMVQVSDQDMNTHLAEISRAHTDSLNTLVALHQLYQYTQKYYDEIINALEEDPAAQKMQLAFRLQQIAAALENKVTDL
READOUT_NAME: effect of a mutation on the interaction

Asked: # lookup: effect of a mutation on the interaction of N86R
Given back: with no effect

Asked: # lookup: effect of a mutation on the interaction of F124Y
Given back: with no effect

Asked: # lookup: effect of a mutation on the interaction of Y60A
Given back: with no effect
